Hey, just so you know, these numbers are from ChEMBL document CHEMBL1201862.

Tested on: COLO 205
Protocol Summary: NCI tumour cell line growth inhibition, 48 h
Active and inactive are the calls of the source. No stated cut-off is given here; in the data, active = GI50 up to about 1.1 µM and inactive = higher.
Endpoint: GI50

{"Compound": "CCCCCCCCC1=CCC(CN(C)C)C1=O (stereo not given)", "GI50": "18.8 µM (inactive)"}

Now for a further compound.
Need GI50 of N#CC1(C#N)C=CC(=C2OCC3CCCN23)C=C1 (stereo not given) , thanks.
> 100 µM (inactive)

---

System: MOLT-4
Protocol Summary: NCI tumour cell line growth inhibition, 48 h
The source made the active and inactive calls. Cut-off read from the data, not from the text of the source: active = GI50 up to about 1.1 µM and inactive = higher.
Thanks in advance; please answer with one of these: y (active), n (inactive)

Example cases with answers are listed next.
{"Compound": "Brc1ccc2[nH]cc(-c3nc(-c4c[nH]c5ccccc45)cs3)c2c1", "Category Label": "n"}
{"Compound": "O=C1C=CC2OC(c3ccccc3)C(O)C2O1 (stereo not given)", "Category Label": "n"}
{"Compound": "O=C1c2ccccc2-c2ccc(N(Cc3ccc(Br)cc3)Cc3ccc(Br)cc3)cc21", "Category Label": "n"}
{"Compound": "O=C(c1ccc(F)cc1)c1cccc(C(=O)c2ccc(F)cc2)n1", "Category Label": "n"}
{"Compound": "COc1cc(Cn2c3ccccc3c3cc(C)c4c(c32)C=CC(C)(CCC=C(C)C)O4)cc2c1[nH]c1ccccc12 (stereo not given)", "Category Label": "n"}
{"Compound": "C#CC1(O)CCC2[C@@H]3CCc4cc(Oc5nc(F)nc(-c6c7ccccc7c(SCC)n6CCC)n5)ccc4C3CC[C@@]21C (stereo not given in full)", "Category Label": "n"}
{"Compound": "OC(Cc1ccc2ccccc2n1)(C(F)(F)F)C(F)(F)F", "Category Label": "n"}
{"Compound": "Cn1c(S)nnc1-c1csc(-c2ccc(Cl)cc2)n1", "Category Label": "n"}
{"Compound": "COc1ccc(C2C(=O)C(Cl)N2Nc2nc(C)cc(O)n2)cc1OC (stereo not given)", "Category Label": "n"}

Please look at the following compound next.
Hi team, can someone confirm the assay call for CCN(CCCl)CCNc1c2ccccc2nc2ccc(OC)cc12 ?
y

---

Listed here are compounds together with their documented GI50.
Test system: T47D
Protocol Summary: NCI tumour cell line growth inhibition, 48 h
Activity calls are given as the source filed them. No stated cut-off is given here; in the data, active = GI50 up to about 1.1 µM and inactive = higher.

Answered cases to consult:
{"Compound": "CCOC(=O)CSc1nc(-c2ccc(OC)cc2)c(C#N)c(=O)[nH]1", "Target Or System": "T47D", "GI50": "> 100 µM (inactive)"}
{"Compound": "Oc1cc(Cc2ccccc2)c(Cc2ccccc2)cc1O", "Target Or System": "T47D", "GI50": "> 10 µM (inactive)"}
{"Compound": "O=C1c2c(O)cccc2C(C2OC(CO)C(O)C(O)C2O)c2cc(CO)cc(O)c21 (stereo unspecified)", "Target Or System": "T47D", "GI50": "> 100 µM (inactive)"}
{"Compound": "c1csc(-c2nn3c(C45CC6CC(CC(C6)C4)C5)nnc3s2)c1", "Target Or System": "T47D", "GI50": "> 100 µM (inactive)"}
{"Compound": "C[C@@H]1S[C@H](c2ccccc2F)N2Cc3ccccc3N=C12", "Target Or System": "T47D", "GI50": "24.1 µM (inactive)"}

Now for a further compound.
Need GI50 of O=S1(=O)OCc2ccccc21 , thanks.
> 100 µM (inactive)

---

Test system: HCC 2998
Protocol Summary: NCI tumour cell line growth inhibition, 48 h
Activity calls are given as the source filed them. No stated cut-off is given here; in the data, active = GI50 up to about 1.1 µM and inactive = higher.
Endpoint: GI50

Answered cases to consult:
{"Compound": "O=c1c2cc(-c3ccccc3)cnc2sn1-c1ccc(Oc2ccccc2)cc1", "Endpoint": "GI50", "Assay Result": "73.5 µM (inactive)"}
{"Compound": "CO/N=C(\\C)c1cccc(Nc2c3ccccc3nc3occc23)c1", "Endpoint": "GI50", "Assay Result": "6.93 µM (inactive)"}
{"Compound": "CC1C=CC(C(N)C(=O)O)O1 (configuration not stated)", "Endpoint": "GI50", "Assay Result": "> 100 µM (inactive)"}

Given the entry N#CC1(C#N)C=CC(=C2OCC3CCCN23)C=C1 (configuration not stated) , what GI50 was observed with HCC 2998?
> 100 µM (inactive)

// next record CCOC(=O)CSc1nc(-c2ccc(OC)cc2)c(C#N)c(=O)[nH]1
> 100 µM (inactive)

// next record Nc1n[n+]([O-])c2ccc(Cl)cc2[n+]1[O-]
16.4 µM (inactive)

// next record COc1ccc(NC(=S)c2ccoc2C)cc1CC(=O)OC(C)C
45.5 µM (inactive)

---

System: NCI/ADR-RES
Protocol Summary: NCI tumour cell line growth inhibition, 48 h
Activity calls are given as the source filed them. Rule as the data show it: active = GI50 up to about 1.1 µM and inactive = higher. Where a SMILES comes first, the peptide text is derived from it. The star is where a group is joined. OSu = O=C1CCC(=O)N1O*; OBn = c1ccc(CO*)cc1; Bn = c1ccc(C*)cc1
Listed here are compounds together with their documented GI50.

Answered cases to consult:
{"Compound": "CC(C)CC(NC(=O)C(N)CCC(=O)OCc1ccccc1)C(=O)NC(COCc1ccccc1)C(=O)NC(Cc1ccccc1)C(=O)ON1C(=O)CCC1=O (stereo not drawn) (H-E(OBn)LS(Bn)F-OSu; configuration not given here)", "Endpoint": "GI50", "Assay Result": "28.5 µM (inactive)"}
{"Compound": "CCOC(=O)CCC(NC(=O)c1ccc(NCc2ccc3nc(OC)c(OC)nc3c2)c2ccccc12)C(=O)OCC (stereo not drawn)", "Endpoint": "GI50", "Assay Result": "> 100 µM (inactive)"}
{"Compound": "CCCC(=O)OC1CC(n2cc(F)c(=O)[nH]c2=O)OC1CO (stereo not drawn)", "Endpoint": "GI50", "Assay Result": "> 2.55 µM (inactive)"}
{"Compound": "Cc1ccccc1-n1c(=O)nc2n(-c3ccc(C(C)(C)C)cc3)c3ccccc3cc-2c1=O", "Endpoint": "GI50", "Assay Result": "16.7 µM (inactive)"}
{"Compound": "C[C@@H]1S[C@H](c2ccccc2F)N2Cc3ccccc3N=C12", "Endpoint": "GI50", "Assay Result": "24.7 µM (inactive)"}

Need GI50 of O=C(O)C(Cc1c[nH]c2ccccc12)N1C(=O)c2ccccc2C1=O (stereo not drawn) , thanks.
> 100 µM (inactive)

// next record c1ccc(-c2cc(-c3cc(-c4ccccc4)no3)on2)cc1
29.7 µM (inactive)

// next record Cc1ccccc1C(=O)C#Cc1cn(C2CC(O)C(CO)O2)c(=O)[nH]c1=O (stereo not drawn)
> 100 µM (inactive)

---

Tested on: NCI/ADR-RES
Protocol Summary: NCI tumour cell line growth inhibition, 48 h
Activity calls are given as the source filed them. No stated cut-off is given here; in the data, active = GI50 up to about 1.1 µM and inactive = higher.
Endpoint: GI50

{"Compound": "Fc1cccc(C2SCc3nc4cc5ccccc5cc4n32)c1 (centres undefined)", "Target Or System": "NCI/ADR-RES", "GI50": "> 100 µM (inactive)"}
{"Compound": "CC1OC(OC2C(O)COC(OC3C(C)OC(OC4C(OC(=O)[C@]56CCC(C)(C)C[C@@H]5C5=CCC7[C@@]8(C)C[C@H](O)[C@H](OC9OC(CO)C(O)C(O)C9O)[C@@](C)(CO)[C@@H]8CC[C@@]7(C)[C@]5(C)CC6)OCC(O)C4O)C(O)C3OC3OCC(O)(CO)C3O)C2O)C(O)C(O)C1O (some centres undefined)", "Target Or System": "NCI/ADR-RES", "GI50": "18.8 µM (inactive)"}

Need GI50 of CC(=O)/C(=C\NC(N)=S)C(=O)Nc1ccccc1C , thanks.
> 100 µM (inactive)

// next record CCc1ccc2oc(-c3cc(O)c(-c4nc5cc(CC)ccc5o4)cc3O)nc2c1
> 100 µM (inactive)

// next record C=C1C(=O)O[C@H]2C/C(C)=C/CC[C@@]3(C)O[C@](C)(CC[C@@H]3I)[C@@H](I)C[C@@H]12
1.44 µM (inactive)

// next record C(=C/CCCN1O[C@@H](CCCCCCCCc2cccnc2)[C@H]2CCC[C@H]21)/CCCCCCCCCc1cccnc1
28.1 µM (inactive)

// next record CC(=O)OC1C=C(C=O)C(O)(C=O)C2(C)CCCC(C)(C)C12 (centres undefined)
1.8 µM (inactive)

// next record COc1cc2c(cc1O)C(Cc1ccc(OCc3ccccc3)c(OCc3ccccc3)c1)N(C(=O)NCCc1ccccc1)CC2 (centres undefined)
> 100 µM (inactive)

// next record COc1cccc(O)c1-c1cc(=O)c2c(O)c(OC)c(OC)c(OC)c2o1
21.8 µM (inactive)

---

Tested on: SF-268
Protocol Summary: NCI tumour cell line growth inhibition, 48 h
Activity calls are given as the source filed them. No stated cut-off is given here; in the data, active = GI50 up to about 1.1 µM and inactive = higher.
Endpoint: GI50

{"Molecule": "COc1cccc(O)c1-c1cc(=O)c2c(O)c(OC)c(OC)c(OC)c2o1", "Target Or System": "SF-268", "Endpoint": "GI50", "Assay Result": "35.3 µM (inactive)"}
{"Molecule": "O=c1c2cc(-c3ccccc3)cnc2sn1-c1ccc(Oc2ccccc2)cc1", "Target Or System": "SF-268", "Endpoint": "GI50", "Assay Result": "51.4 µM (inactive)"}
{"Molecule": "Cc1c(-c2coc(-c3ccccc3)n2)c(=O)n(-c2ccccc2)n1C", "Target Or System": "SF-268", "Endpoint": "GI50", "Assay Result": "> 100 µM (inactive)"}

Need GI50 of Cc1ccc(/C=c2\c(=O)[nH]c3nc4ccccc4c(=O)n23)cc1 , thanks.
45.5 µM (inactive)

// next record CN(C(=O)C12C3C4C1C1C2C3C41C#N)C(C)(C)C (centres undefined)
> 100 µM (inactive)
